system: BT-474; assay: In vitro cell proliferation inhibition, WST assay; type: cell-based, human; conditions: Homo sapiens, BT-474, 72 h, BT-474 cells, cultured for 3 days, read-out: BT-474 (nM) proliferation inhibitory activity (IC50 value)
measurement-label: IC50 (nM)

Identify measured IC50 associated with CC#C/C(=N\OCCN(C)CCOC)c1ccc2ncnc(Nc3ccc(OCc4cccc(F)c4)c(Cl)c3)c2c1
22

Write down IC50 measured for item CC#C/C(=N\OCCNC)c1ccc2ncnc(Nc3ccc(OCc4ccccn4)c(Cl)c3)c2c1
20

Name the recorded IC50 of the molecule listed here: CC#C/C(=N\OCCNCCOC(N)=O)c1ccc2ncnc(Nc3ccc4c(cnn4Cc4cccc(F)c4)c3)c2c1
24

Indicate the recorded IC50 value for this molecule: CC#C/C(=N\OCCN1CC[C@@H](OC(N)=O)C1)c1ccc2ncnc(Nc3ccc(OCc4ccccn4)c(Cl)c3)c2c1
47

A: CC#C/C(=N\OCCN1CCCC(O)C1)c1ccc2ncnc(Nc3ccc(OCc4ccccn4)c(Cl)c3)c2c1 (stereo not drawn)
B: CNCCO/N=C(\C#CCOC)c1ccc2ncnc(Nc3ccc(OCc4ccccn4)c(Cl)c3)c2c1
Out of A and B , name the one with the higher IC50. Write down the label attached to your selection.
A
(A: 37 nM, B: 5 nM)
